The reported measurements were obtained from PubChem BioAssay.

# assay-method-text: small-molecule microarray binders of probe aCHRDL2, primary screen, biochemical, biotinylated probe, 635/667 nm fluorescence (AID 1100)
# experimental-conditions: higher = more signal
property-name: composite z-score
Answers are plain numbers.

Recorded composite z-score, per entry:
| compound | number |
| --- | --- |
| CC(C)(C)OC(=O)CC[C@]1(C(=O)O)N=C(c2ccc(OCCCO)cc2)O[C@H]1c1ccccc1CN=[N+]=[N-] | 0.764 |
| COC(=O)[C@@]1(Cc2ccc(OC)cc2)[C@H]2c3cc(C(=O)N(C)C)n(Cc4ccccc4)c3C[C@H]2CN1C(=O)c1ccccc1 | -0.332 |
| CC(C)CCC[C@@H](C)[C@H]1CC[C@@]2(C)C3=C(CC[C@]12C)[C@@]1(C)CC[C@H](OC(=O)c2ccc(Br)cc2)C(C)(C)C1CC3 (some centres not stated) | -0.331 |

Hello, I would appreciate it if you could give composite z-score for each entry below.
1. COCCOC(=O)N1C(=O)[C@@]2(c3ccccc31)[C@H](C(=O)N1CCN(c3ncccn3)CC1)[C@H]1C(=O)O[C@H](c3ccccc3)[C@H](c3ccccc3)N1[C@@H]2c1ccc(OCCO)cc1
2. C[C@H]1C2=C3C(CC[C@H]4C(OCc5ccc(F)cc5C(F)(F)F)OC[C@](C)([C@@H]34)N(C(=O)OC(C)(C)C)C2)C(CO)C1CO (some centres not stated)
3. O=C1C[C@@](C(=O)NCC(F)(F)F)(c2ccc([N+](=O)[O-])cc2)[C@@H](c2ccc(CO)cc2)N1C1CCCCC1

1. 0.422
2. 0.984
3. 0.843

Which composite z-score value belongs to COc1ccc([Si](C)(C)[C@H]2[C@H](CCn3cc([C@H](O)c4ccccc4)nn3)O[C@@]3(C(=O)N(Cc4cccc(N5C(=O)c6cccc7cccc5c67)c4)c4ccccc43)[C@@H]2C)cc1 ?
0.837

----------
Give measured composite z-score for each item. Keep answers brief.
# assay-method-text: binders from COS7 lysate, DM2A8 probe, primary screen, torsin A project, cell lysate, small-molecule microarray, fluorescence 635/667 (AID 1065)
# experimental-conditions: higher = more signal, COS7 lysate expressing mutant human TOR1A
Give bare numbers.

Solved cases (3 shown):
| structure-smiles-string | composite z-score |
| --- | --- |
| O=C1O[C@@H](c2ccccc2)[C@@H](c2ccccc2)N2[C@@H](c3ccccc3OCCO)[C@]3(C(=O)Nc4ccc(C#CCCO)cc43)[C@@H](C(=O)N3CCN(c4ncccn4)CC3)[C@H]12 | -0.167 |
| C=C(C(=O)CC[C@H](OC(=O)c1cccnc1)c1ccc(CO)o1)C(C)C | 0.674 |
| COCCOC(=O)N1C(=O)[C@@]2(c3cc(C#CC4=CCCCC4)ccc31)[C@H](c1ccccc1OCCO)N1[C@H](c3ccccc3)[C@H](c3ccccc3)OC(=O)[C@H]1[C@@H]2C(=O)N1CCc2cc(OC)c(OC)cc2C1 | 0.433 |

Consider the record given below.
Can you share its composite z-score? I mean this compound: CO[C@H]1O[C@H](CO)[C@@H](OC(=O)c2ccc(Br)cc2)[C@@H]2OC(=O)[C@@H](Cc3ccc4ccccc4c3)C/C=C/C[C@H](Cc3ccc4ccccc4c3)C(=O)O[C@@H]12
-0.08

----------
# Tested on: XIP peptide (Xip251-270) binding
# assay-method-text: small-molecule binders of XIP peptide, primary screen, biochemical, small-molecule microarray, fluorescence 635/667 nm, 0.1 µg/mL protein (AID 1182)
# experimental-conditions: fluorescent protein binding, 635 nm, higher = more signal, called active from +8 up or from −8 down
Exercise: for every item that follows, state its recorded composite z-score.
Give bare numbers.

// known answers, use as guide
| compound | composite z-score |
| --- | --- |
| CCOC(=O)C1=C[C@@H](c2ccccc2)N(S(=O)(=O)c2ccc(C)cc2)[C@H]1c1cccc(Cl)c1 | 0.526 |
| COCCCNC(=O)[C@]1(Cc2ccccc2CN=[N+]=[N-])N=C(c2ccc(OCCCO)cc2)O[C@@H]1c1ccccc1 | 0.0968 |
| COC(=O)[C@@]1(Cc2ccc(OC)cc2)[C@H]2c3cc(C(=O)N(C)C)n(Cc4ccccc4)c3C[C@H]2CN1C(=O)c1ccccc1 | 0.0961 |

For every listed record, write down its composite z-score.
1. CO[C@H]1O[C@H](CO)[C@@H](OC(=O)Nc2ccc(C(F)(F)F)cc2)[C@H](OC(=O)Nc2ccc3c(c2)OCO3)[C@H]1OC(=O)Nc1ccc2c(c1)OCO2
2. COC(=O)[C@@]1(Cc2ccc(OC)cc2)[C@H]2c3cc(C(=O)N(C)C)n(Cc4nc5ccccc5[nH]4)c3C[C@H]2CN1C(=O)c1ccccc1
3. CCOC(=O)C[C@H]1[C@H](OC(=O)c2ccc(-c3ccccc3)cc2)[C@@H](NC(=O)c2ccc3ccccc3n2)c2cc(OCCCO)ccc2N1C(=O)c1ccccc1
4. COc1ccc(CCNC(=O)[C@@]2(Sc3ccc(C)cc3)CC(=O)N(Cc3cc(C(F)(F)F)cc(C(F)(F)F)c3)[C@@H]2c2ccc(CO)cc2I)cc1

1.22
0.469
-0.0549
0.439

# map each compound to its composite z-score
1. COCCOC(=O)N1C(=O)[C@@]2(c3cc(C#CCC(C(=O)OC)C(=O)OC)ccc31)[C@H](c1ccc(OCCO)cc1)N1[C@H](c3ccccc3)[C@H](c3ccccc3)OC(=O)[C@H]1[C@@H]2C(=O)N1CCN(c2ncccn2)CC1
2. CN1C2C=C(CCCO)C(C3C(=O)N(C(N)=O)C(=O)C32)C1c1cccs1 (centres undefined)

1. 1.42
2. 0.0931
